biological target: EphA2 endogenously expressed on PC3 prostate cancer cells (UniProt P29317 24-976, limits assumed); test: cell-based or functional assay
Sequence (P29317 24-976 limits assumed): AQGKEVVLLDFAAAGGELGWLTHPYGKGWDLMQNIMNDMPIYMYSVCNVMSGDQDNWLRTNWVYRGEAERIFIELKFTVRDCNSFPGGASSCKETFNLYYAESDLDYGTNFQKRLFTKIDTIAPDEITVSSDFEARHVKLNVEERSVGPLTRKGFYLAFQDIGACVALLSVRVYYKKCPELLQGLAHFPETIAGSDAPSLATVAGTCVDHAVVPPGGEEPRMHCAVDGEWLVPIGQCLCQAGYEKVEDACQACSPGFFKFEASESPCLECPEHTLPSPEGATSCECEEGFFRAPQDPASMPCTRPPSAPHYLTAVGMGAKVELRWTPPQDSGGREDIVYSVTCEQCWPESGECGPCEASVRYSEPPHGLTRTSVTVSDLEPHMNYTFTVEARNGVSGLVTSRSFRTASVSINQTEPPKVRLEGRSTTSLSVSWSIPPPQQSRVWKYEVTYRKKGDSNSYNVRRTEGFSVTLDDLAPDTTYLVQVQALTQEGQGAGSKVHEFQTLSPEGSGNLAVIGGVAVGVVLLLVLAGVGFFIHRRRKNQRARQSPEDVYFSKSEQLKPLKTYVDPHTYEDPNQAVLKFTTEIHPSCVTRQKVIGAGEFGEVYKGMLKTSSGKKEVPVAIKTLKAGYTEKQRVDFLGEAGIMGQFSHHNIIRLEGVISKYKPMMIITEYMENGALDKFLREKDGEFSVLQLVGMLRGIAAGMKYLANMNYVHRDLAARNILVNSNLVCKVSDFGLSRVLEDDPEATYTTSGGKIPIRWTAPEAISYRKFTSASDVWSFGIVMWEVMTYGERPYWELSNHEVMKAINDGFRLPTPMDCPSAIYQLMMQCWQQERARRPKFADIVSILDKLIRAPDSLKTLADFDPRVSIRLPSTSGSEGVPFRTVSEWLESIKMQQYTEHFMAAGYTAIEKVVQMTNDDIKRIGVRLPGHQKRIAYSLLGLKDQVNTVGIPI
Where no end group is shown, it is not given here.
attribute_measured: EC50 pAKT inhib (nM)
Give just the number in nM; leave the unit off.

Completed entries (count: 2):
Please fill in: EC50 pAKT inhib reported for CGAWLAYPDSVPYRPK-NH2 (also: homodimer: N-terminal Cys of two chains joined by disulfide) [CGA-WLA-YRPKam dimer (N-ter)] = 0.08

EC50 pAKT inhib recorded for this binder, CGAWLAYPDSVPYRPK (also: N-terminally disulfide-linked homodimer, disulfide at 1, other end not in the chain, also called dimer (5); dimeric peptide (5)) [CGA-WLA-YRPK dimer (N-ter)] , is 0.09

From here, focus on the item given below.
Memo: Click dimer (N-ter) (not fully specified; propargylglycine (Pra) at position 1, joined by a click linkage to KN3 of the other chain; C-terminal amide; azido-lysine (KN3) at position 1, joined by a click linkage to Pra of the other chain; C-terminal amide) peptide 1: KAWLAYPDSVPYRPK peptide 2: XGAWLAYPDSVPYRPK , reported EC50 pAKT inhib: 0.08
